- Test system: MOLT-4 leukemia
- assay_notes: NCI tumour cell line growth inhibition, 48 h
assay_metric: TGI

-- ask Need TGI, item NCC(Cc1ccccc1)P(=O)(O)O (stereo unspecified)
-- reply > 100 µM

-- ask Need TGI, item "O=C1c2ccccc2-c2c1c1ccc([N+](=O)[O-])cc1c(=O)n2CCCCl"
-- reply > 100 µM

-- ask Need TGI, item "O=S(=O)(NCCCNc1nccc(-c2c(-c3cccc(F)c3)nc3occn23)n1)c1cccc2ccccc12"
-- reply > 100 µM

-- ask Need TGI, item "CCCCOCCOCCOC1=C(Cl)C(=O)c2c(O)ccc(O)c2C1=O"
-- reply 0.1 µM

-- ask Need TGI, item CC1(CCCCO)C=CC(S(=O)(=O)c2ccccc2)CC1 (stereo unspecified)
-- reply 14.9 µM

-- ask Need TGI, item "CCOc1ccc(/C=C2/C(=O)N=C(N)N=C2N)cc1OCC"
-- reply > 100 µM

-- ask Need TGI, item "CCN(CCCl)c1cc(CN(C)C)cc(NC(=O)c2cc(C(=O)Nc3cc(CN(C)C)cc(N(CC)CCCl)c3)n(C)n2)c1"
-- reply 0.164 µM

-- ask Need TGI, item "NC(N)=N/N=C\c1c(-c2ccccc2)nc2sccn12"
-- reply 51.7 µM

-- ask Need TGI, item "CC(C)=NNc1ncnc2nc[nH]c12"
-- reply > 100 µM

-- ask Need TGI, item Cc1c(C)c2ccc(OC(C)C(=O)O)cc2oc1=O (stereo unspecified)
-- reply > 100 µM

-- ask Need TGI, item "O=C(Nc1ccc(Cl)c(C(F)(F)F)c1)C(=O)c1c(O)c2ccccc2oc1=O"
-- reply > 100 µM

----------
- Test system: MCF7 breast
- assay_notes: NCI tumour cell line growth inhibition, 48 h
assay_metric: GI50

Worked cases, answers included:
# compound, GI50
records = [
    ("N#Cc1cccc(C2C3=C(COC3=O)N(CCO)c3cc4c(cc32)CCC4)c1 (configuration not stated)", "41.1 nM"),
    ("Cc1ccc(C(=O)N2C/C(=C/c3ccccc3)C(=O)/C(=C/c3ccccc3)C2)cc1", "387 nM"),
    ("C=C(C)[C@@H]1CC[C@]2(C(=O)n3ccnc3)CC[C@]3(C)[C@H](CC[C@@H]4[C@@]5(C)CCCNC(C)(C)[C@@H]5CC[C@]43C)[C@@H]12", "1500 nM"),
    ("O=C(Nc1ccc(Br)cc1)Nc1cccc(Br)c1", "3200 nM"),
    ("COC(=O)c1ccc2c(c1)C(=O)c1c-2n(CCCCl)c(=O)c2cc(OC)c(OC)cc12", "> 100000 nM"),
    ("CCOc1cc(/C=C/C(=O)CC(=O)/C=C/c2ccc(OC(=O)CNCCN(CC)CC)c(OCC)c2)ccc1OC(=O)CNCCN(CC)CC", "782 nM"),
]

# context switch: different compound, same GI50
-- ask Need GI50, item "Nc1c(C(=O)Nc2ccccn2)sc2nc3c(cc12)CCCCCC3"
-- reply 179 nM

----------
- Test system: LOX IMVI melanoma
- assay_notes: NCI tumour cell line growth inhibition, 48 h
assay_metric: TGI

Worked cases, answers included:
# compound, system_name, result
records = [
    ("CCCCC1Cc2cc(OC)ccc2-c2n1c1cc(OC)ccc1[n+]2C (stereo unspecified) (tested in a mixture with another compound)", "LOX IMVI melanoma", "14.3 µM"),
    ("Clc1cccc2[nH]ncc12", "LOX IMVI melanoma", "> 100 µM"),
    ("Cc1c(C)c2ccc(OC(C)C(=O)O)cc2oc1=O (stereo unspecified)", "LOX IMVI melanoma", "> 100 µM"),
    ("O=C(Nc1nc2c(s1)CCc1c-2c(Br)n(Cc2ccccc2)c1Br)c1ccccc1", "LOX IMVI melanoma", "> 100 µM"),
    ("Nc1c(C(=O)c2ccccc2)nnc2ccccc12", "LOX IMVI melanoma", "> 100 µM"),
]

# context switch: different compound, same TGI
-- ask Need TGI, item CCOC(=O)[C@H]1Nc2c(cccc2[N+](=O)[O-])C2c3ccccc3CC21 (stereo partly specified)
-- reply > 100 µM

----------
- Test system: MALME-3M melanoma
- assay_notes: NCI tumour cell line growth inhibition, 48 h
The reader will find reported TGI values listed item by item below.
Please state the figure in µM; there is no need to write the unit.

Worked cases, answers included:
# compound, quantitative_result
data = [
    ("O=C1c2ccccc2/C=C\\C(c2ccccc2)=N/N1c1ccccc1Cl", 71.4),
    ("Cn1c(SCc2c[nH]c3ccccc23)nnc1-c1ccc(Cl)cc1Cl", 45.8),
    ("CC1(CCCCO)C=CC(S(=O)(=O)c2ccccc2)CC1 (stereo not drawn)", 12.1),
]

# context switch: different compound, same TGI
-- ask So what TGI did "Cc1ccc(NC2=CC(=O)C(=O)c3ccccc32)c(C)c1" get with MALME-3M melanoma?
-- reply 3.78

----------
The reader will find reported TGI values listed item by item below.
- Test system: M14 melanoma
- assay_notes: NCI tumour cell line growth inhibition, 48 h
Please state the figure in µM; there is no need to write the unit.

# compound, system_name, TGI, µM
records = [
    ("CC(C)C/C(=N\\NC(=O)c1ccncc1)c1cc(Cl)ccc1O", "M14 melanoma", 13.3),
    ("CCN(CC)CCS(=O)(=O)CCNc1ccnc2cc(Cl)ccc12", "M14 melanoma", 9.33),
]

-- ask Need TGI, item CC1=CC(=O)c2c(O)c3c(c(O)c2C1=O)C1C(O)C(C3=O)C23C(=O)c4c(O)c(C)cc(O)c4C(O)=C2C(=O)CC(O)C13 (stereo not given)
-- reply 10.5

----------
- System: IGROV1 ovarian
- assay_notes: NCI tumour cell line growth inhibition, 48 h; in the data active means GI50 below about 0.43 µM; inactive means the rest
Form entry, call: pick from true (1) = active, false (0) = inactive

# compound, qualitative_label
rows = [
    ("Cc1n(Cc2ccc3ccccc3n2)cc[n+]1Cc1ccc2ccccc2c1", "false (0)"),
]

-- ask Each compound tested received a call. Report the one for CC1CCC2c3c([nH]c4ccccc34)C3C(=O)N(c4ccccc4)C(=O)C3C2C1 (centres undefined) .
-- reply false (0)

-- ask Each compound tested received a call. Report the one for "O=C1c2ccccc2-c2c1c1ccc([N+](=O)[O-])cc1c(=O)n2CCCCl" .
-- reply false (0)

----------
- Tested on: MOLT-4 leukemia
- assay_notes: NCI tumour cell line growth inhibition, 48 h
The reader will find reported TGI values listed item by item below.
Please state the figure in µM; there is no need to write the unit.

Worked cases, answers included:
# compound, reading_unit, TGI
records = [
    ("CCc1ccc(C2=NN(c3ccc(S(C)(=O)=O)cc3)C(=O)CC2)cc1", "µM", 17.5),
    ("CSc1nc(C)c(CCOC(C)=O)c(N=P(c2ccccc2)(c2ccccc2)c2ccccc2)n1", "µM", 6.43),
    ("CC(=O)Nc1cc(/C=C\\C(=O)N2CC(CCl)c3c2cc(N)c2ccccc32)n(C)n1 (stereo not given)", "µM", 0.0357),
]

-- ask Need TGI, item "CC(=O)O[C@H]1C[C@H]2[C@@H]([C@H](OC(C)=O)C[C@@H]3CC4(CC[C@@]32C)OOC2(CCCCC2)OO4)[C@@H]2CC[C@H]([C@H](C)CCC(=O)O)[C@@]12C"
-- reply 51.6

-- ask Need TGI, item "CCN(CC)C(=S)SSCCO"
-- reply 21.7

----------
- Test system: OVCAR-5 ovarian
- assay_notes: NCI tumour cell line growth inhibition, 48 h
assay_metric: TGI

-- ask Need TGI, item C1=C(c2ccccc2)C(OC2Oc3ccccc3C=C2c2ccccc2)Oc2ccccc21 (stereo unspecified)
-- reply > 100 µM

-- ask Need TGI, item O=c1[nH]c(=S)[nH]c2c(C3OC(CO)C(O)C3O)nsc12 (stereo unspecified)
-- reply > 100 µM

-- ask Need TGI, item C=CC1(O)CCCC=C1COCc1ccccc1 (stereo unspecified)
-- reply > 100 µM

----------
The reader will find reported TGI values listed item by item below.
- Tested on: XF 498 CNS
- assay_notes: NCI tumour cell line growth inhibition, 48 h

Worked cases, answers included:
# compound, TGI
rows = [
    ("C1=C(c2ccccc2)C(OC2Oc3ccccc3C=C2c2ccccc2)Oc2ccccc21 (configuration not stated)", "> 100 µM"),
    ("C1CCN2CC3CONC3C2C1 (configuration not stated)", "> 100 µM"),
    ("Cn1cc(NC(=O)c2cc(NC(=O)CCCCCCCC(=O)Nc3cc(C(=O)Nc4cc(C(=O)NCCC(=N)N)n(C)c4)n(C)c3)cn2C)cc1C(=O)NCCC(=N)N", "56.1 µM"),
    ("CCOc1ccc(/C=C2/C(=O)N=C(N)N=C2N)cc1OCC", "> 100 µM"),
    ("Cc1cc(OC(=O)c2c(C)cc(OC(=O)c3c(C)cc(O)cc3O)cc2O)cc(O)c1C(=O)O", "> 100 µM"),
    ("COc1ccc2c3c(c(C(=O)O)oc13)C(CCC(=O)O)CC2 (configuration not stated)", "> 100 µM"),
]

# context switch: different compound, same TGI
-- ask Need TGI, item "CN(C)CCNC(=O)c1cccc2cc3ccc4ccccc4c3nc12"
-- reply 0.237 µM
